Target: T1, Cdc15 F-BAR (aa 19–312) (S. pombe, UniProt Q09822 19-312)
T1 sequence (looked up): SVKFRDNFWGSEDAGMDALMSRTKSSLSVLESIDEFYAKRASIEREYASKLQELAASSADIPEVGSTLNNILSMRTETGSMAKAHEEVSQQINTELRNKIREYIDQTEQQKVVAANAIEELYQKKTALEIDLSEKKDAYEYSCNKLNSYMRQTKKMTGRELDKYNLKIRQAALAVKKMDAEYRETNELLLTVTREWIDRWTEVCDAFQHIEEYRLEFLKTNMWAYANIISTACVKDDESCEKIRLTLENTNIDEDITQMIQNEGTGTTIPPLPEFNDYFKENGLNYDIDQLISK
Assay: pull-down
Ends that are not written are not given here.
PROPERTY_MEASURED: pKd
When answering, recall that pKd equals minus log10 of the concentration in mol/L, and write that number alone.

// pKd lookup, key: TPTPSARRTIGPRAPKSKTTY (peptide, UniProt Q10059 20-40, looked up, also: biotinylated, position not given here) [Cdc12 (aa 20–40) synthetic peptide]
8.96
